TARGET ENTITY: PIM2 (Homo sapiens, UniProt Q9P1W9)
Sequence (Q9P1W9 whole entry): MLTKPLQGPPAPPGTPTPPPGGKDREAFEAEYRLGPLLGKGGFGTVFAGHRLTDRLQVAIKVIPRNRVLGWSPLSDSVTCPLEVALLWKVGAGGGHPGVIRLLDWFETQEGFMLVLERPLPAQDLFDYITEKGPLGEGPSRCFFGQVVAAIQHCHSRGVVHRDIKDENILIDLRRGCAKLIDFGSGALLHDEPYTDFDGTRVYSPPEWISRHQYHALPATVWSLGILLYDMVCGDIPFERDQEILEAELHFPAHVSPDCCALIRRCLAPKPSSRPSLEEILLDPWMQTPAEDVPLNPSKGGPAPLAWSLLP
TEST SUMMARY: KinaseGlo Pim2 ATP depletion assay
Format: biochemical
MEASURED ENDPOINT: IC50 (nM)

Completed entries (count: 3):
C[C@@H]1O[C@H](c2ccncc2NC(=O)c2ccc(F)c(-c3c(F)cccc3F)n2)C[C@@H](O)[C@H]1O [Example 107] : 20
C[C@H]1O[C@@H](c2ccncc2NC(=O)c2ccc(F)c(-c3c(F)cccc3F)n2)C[C@@H](O)[C@]1(C)O (stereo in doubt) [Example 110] : 347
C=C[C@H]1OC(c2ccncc2NC(=O)c2nc(-c3ccccc3)ncc2N)=C[C@@H](O)[C@@H]1O [Example 22] : 160

[A] C[C@@H]1O[C@H](c2ccncc2NC(=O)c2csc(-c3c(F)cccc3F)n2)C[C@H](O)[C@H]1O (stereo in doubt) [Example 135]
[B] CC[C@]1(O)[C@H](O)C[C@H](c2ccncc2NC(=O)c2nc(-c3ncccc3F)ccc2N)O[C@@H]1C [Example 155]
Request: I would appreciate it if you could say which entry, A or B , has the lower IC50 value. Could you answer with the label of the item you picked?
Response: B
(B: 46.3 nM, A: 149 nM)

---

TARGET ENTITY: GSK3β (Homo sapiens, UniProt P49841)
Sequence (P49841 whole entry, species assumed): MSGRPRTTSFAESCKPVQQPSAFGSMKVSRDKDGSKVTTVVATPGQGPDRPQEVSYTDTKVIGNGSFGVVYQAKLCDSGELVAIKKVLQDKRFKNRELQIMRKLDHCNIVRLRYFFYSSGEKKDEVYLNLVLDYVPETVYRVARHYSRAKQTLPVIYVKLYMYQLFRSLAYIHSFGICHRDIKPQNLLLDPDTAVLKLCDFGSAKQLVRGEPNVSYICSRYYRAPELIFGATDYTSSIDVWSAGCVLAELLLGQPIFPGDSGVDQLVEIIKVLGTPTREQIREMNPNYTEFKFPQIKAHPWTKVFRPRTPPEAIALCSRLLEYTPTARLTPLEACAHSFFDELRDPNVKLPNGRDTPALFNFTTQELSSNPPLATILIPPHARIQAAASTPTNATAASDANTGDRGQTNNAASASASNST
TEST SUMMARY: GSK3β ATP depletion assay
Assay type: biochemical
COND: read-out: GSK3b IC50
pIC50: −log10 of the molar value.
MEASURED ENDPOINT: pIC50

O=C(Nc1cnccc1[C@H]1C[C@@H](O)[C@H](O)[C@@H](CCl)O1)c1ccc(F)c(-c2c(F)cccc2F)n1 : 7.14
C=C1[C@H](O)C[C@H](c2ccncc2NC(=O)c2nc(-c3c(F)cccc3F)ncc2N)OC12CC2 : 5.88
O=C(Nc1cnccc1[C@H]1C[C@@H](O)[C@@]2(O)CCCC[C@H]2O1)c1ccnn(-c2ccccc2F)c1=O : 7.41
C=C1[C@@H](O)C[C@@H](c2ccncc2NC(=O)c2nc(-c3ccccc3)cnc2N)OC12CC2 : 9.00
CC[C@]1(O)[C@H](O)C[C@H](c2ccncc2NC(=O)c2nc(-c3ccccc3)ncc2N)O[C@@H]1C : 6.56
CC1C(c2ccncc2NC(=O)c2ccc(F)c(-c3c(F)cccc3F)n2)OC(C)[C@H](O)C1O (stereo in doubt) [Example 66] : 6.16
O=C(Nc1cnccc1[C@@H]1C[C@H](O)[C@@H](O)[C@H](C2CC2)O1)c1ccc(F)c(-c2c(F)cccc2F)n1 : 5.97
CC[C@]1(O)[C@H](C)O[C@H](c2ccncc2NC(=O)c2ccc(F)c(-c3c(F)cccc3F)n2)C[C@@H]1O (stereo in doubt) : 7.00
CC[C@H]1O[C@@H](c2ccncc2NC(=O)c2c[nH]cc(-c3ccccc3)c2=O)C[C@@H](O)[C@@H]1O : 5.45
CC(C)NC(=O)c1ccc(F)c(-c2nc(C(=O)Nc3cnccc3[C@H]3C[C@@H](O)[C@](C)(O)[C@@H](C)O3)ccc2F)c1 : 5.93

[1] O=C(Nc1cnccc1[C@@H]1CCCCO1)c1ccc(F)c(-c2c(F)cccc2F)n1
[2] C[C@H]1[C@H](O)C[C@H](c2ccncc2NC(=O)c2ccc(F)c(-c3c(F)cccc3F)n2)O[C@@H]1C (stereo in doubt)
Request: Response body: label of entry with the larger pIC50; valid values 1 , 2 . Could you answer with the label of the item you picked?
Response: 2
